Target: Photinus pyralis (firefly) luciferase (Photinus pyralis, UniProt P08659)
Sequence (P08659 whole entry): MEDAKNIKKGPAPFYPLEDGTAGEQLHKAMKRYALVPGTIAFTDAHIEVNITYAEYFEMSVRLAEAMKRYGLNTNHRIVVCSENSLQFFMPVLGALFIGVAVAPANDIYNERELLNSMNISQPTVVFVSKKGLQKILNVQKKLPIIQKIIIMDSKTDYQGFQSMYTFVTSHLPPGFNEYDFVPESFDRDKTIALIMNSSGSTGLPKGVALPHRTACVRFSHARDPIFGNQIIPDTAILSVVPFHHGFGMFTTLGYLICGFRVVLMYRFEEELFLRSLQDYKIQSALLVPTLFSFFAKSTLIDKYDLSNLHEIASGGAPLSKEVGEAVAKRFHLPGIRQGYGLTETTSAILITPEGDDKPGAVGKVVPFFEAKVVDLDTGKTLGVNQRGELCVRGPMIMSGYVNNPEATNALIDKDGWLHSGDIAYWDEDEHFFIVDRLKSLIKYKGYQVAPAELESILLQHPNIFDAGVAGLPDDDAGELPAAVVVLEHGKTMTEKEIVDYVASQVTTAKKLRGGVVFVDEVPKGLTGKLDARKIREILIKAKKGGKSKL
Test: biochemical
Assay type: biochemical
Where a name gives a salt, the structure may show the parent alone.
Please respond with reported pIC50 for every item in the list.
Give bare numbers, as −log10 of the molar value.

                                   molecule  outcomemeasure  testvalue
0  COC(=O)N(OC)c1ccccc1COc1ccn(-c2ccc(Cl)cc2)n1           pIC50       4.25

Hello, I would appreciate it if you could give pIC50 for each entry below.
1. O=S1(=O)OCC2C(CO1)C1(Cl)C(Cl)=C(Cl)C2(Cl)C1(Cl)Cl (centres unmarked) [Endosulfan sulfate]
2. Cc1cc(-c2ccc(N)c(C)c2)ccc1N
3. CS(=O)(=O)c1ccc(-c2cn3ccccc3n2)cc1
4. COc1ccc(-c2coc3cc(O)ccc3c2=O)cc1

*A*
1. 4.27
2. 4.12
3. 5.16
4. 5.50

----------
So I've got CYP2D6 IC50 (half-maximal inhibitory concentration) readings for human CYP2D6 (Homo sapiens), take a look.

# example entries with known answers
                                   compound  testvalue
0  CCN(CC)C(=O)SCc1ccc(Cl)cc1 [Thiobencarb]   Inactive
1  COC(=O)c1cc(Cl)ccc1NS(=O)(=O)C(F)(F)F [Amidoflumet]   Inactive
2  CC(C)(C(=O)c1cccnc1)c1cccnc1 [Metyrapone]   Inactive
3  Cn1ccc2cc3c(cc21)CCN3C(=O)Nc1cccnc1 [SB-206553]   Inactive
4  Oc1ccc2ccc3cccc4ccc1c2c34 [1-Hydroxypyrene]   Inactive
5  CC(=C(CCOC(=O)C(C)C)SSC(CCOC(=O)C(C)C)=C(C)N(C=O)Cc1cnc(C)nc1N)N(C=O)Cc1cnc(C)nc1N (stereo in doubt) [Bisibutiamine]   Inactive

Field: CYP2D6 IC50 (half-maximal inhibitory concentration). Fill in for each record below.
1. O=c1c(-c2ccc(O)cc2)coc2cc(O)ccc12 [Daidzein]
2. O=C1CCCc2c1cc1ccc3cccc4ccc2c1c34 [9,10-Dihydrobenzo[a]pyren-7(8H)-one]
3. CCC(C)n1ncn(-c2ccc(N3CCN(c4ccc(OCC5COC(Cn6cncn6)(c6ccc(Cl)cc6Cl)O5)cc4)CC3)cc2)c1=O (stereo not drawn) [Itraconazole]

*A*
["Inactive", "Inactive", "Inactive"]

----------
Target: human CYP2D6 (Homo sapiens, UniProt P10635)
Sequence (P10635 whole entry): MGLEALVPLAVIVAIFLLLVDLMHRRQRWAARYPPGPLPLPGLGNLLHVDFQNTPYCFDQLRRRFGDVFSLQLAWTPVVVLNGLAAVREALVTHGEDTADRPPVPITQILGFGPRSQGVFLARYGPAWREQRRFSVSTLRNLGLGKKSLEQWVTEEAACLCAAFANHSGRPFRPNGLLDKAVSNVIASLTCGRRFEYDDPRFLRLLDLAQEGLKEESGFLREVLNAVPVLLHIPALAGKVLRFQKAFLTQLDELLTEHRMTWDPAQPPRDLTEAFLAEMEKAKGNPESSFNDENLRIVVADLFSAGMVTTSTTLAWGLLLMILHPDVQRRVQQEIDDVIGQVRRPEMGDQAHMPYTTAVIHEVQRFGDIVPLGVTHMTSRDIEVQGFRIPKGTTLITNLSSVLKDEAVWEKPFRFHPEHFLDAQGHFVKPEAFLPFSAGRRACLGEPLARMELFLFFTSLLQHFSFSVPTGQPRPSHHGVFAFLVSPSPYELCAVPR
Assay: biochemical
Settings: CYP2D6 AC50 (half-maximal activity concentration)
Where a name gives a salt, the structure may show the parent alone.
Friendly reminder: AC50 below 30 µM is yes, at or above is no.

In [3]: df
Out[3]:
                                   compound  classification
0  CCCCC(CC)COP(=O)(O)OCC(CC)CCCC (stereo not drawn) [Bis(2-ethylhexyl) phosphate]              no

*Q* For O=C1C(Cl)C(CCl)CN1c1cccc(C(F)(F)F)c1 (stereo not drawn) [Flurochloridone] , is the recorded AC50 below the cut-off of 30 µM?
*A* no

*Q* Find out if reported AC50 for CC(CCc1ccccc1)NCC(O)c1ccc(O)c(C(N)=O)c1 (stereo not drawn) [Labetalol hydrochloride] is less than 30 µM
*A* yes

*Q* Answer whether the compound OC(CN1CCC(Cc2ccc(F)cc2)CC1)c1ccc(Cl)cc1 (stereo not drawn) [Eliprodil] has AC50 strictly less than 30 µM
*A* yes

*Q* Determine if O=C(CCCN1CCN(c2ccccn2)CC1)c1ccc(F)cc1 [Azaperone] shows AC50 strictly lower than 30 µM.
*A* yes

*Q* Report whether reported AC50 is lower than 30 µM (strictly) for Clc1ccc(C(c2ccccc2Cl)C(Cl)Cl)cc1 (stereo not drawn) [Mitotane]
*A* no

*Q* # strict comparison: is reported AC50 < 30 µM? input = O=C(Cl)c1cccc(C(=O)Cl)c1 [1,3-Benzenedicarbonyl dichloride]
*A* yes

*Q* Regarding CCOC(=O)c1nc(C(Cl)(Cl)Cl)n(-c2ccc(Cl)cc2Cl)n1 [Fenchlorazole-ethyl] , kindly confirm whether its AC50 is beneath 30 µM.
*A* yes

*Q* Lab note: AC50 threshold 30 µM. Does this compound come in strictly under it? Cl[C@H]1[C@H](Cl)[C@@H](Cl)[C@H](Cl)[C@@H](Cl)[C@H]1Cl [delta-Hexachlorocyclohexane]
*A* no

----------
Molecular target: human CYP2C9 (Homo sapiens, UniProt P11712)
Sequence (P11712 whole entry): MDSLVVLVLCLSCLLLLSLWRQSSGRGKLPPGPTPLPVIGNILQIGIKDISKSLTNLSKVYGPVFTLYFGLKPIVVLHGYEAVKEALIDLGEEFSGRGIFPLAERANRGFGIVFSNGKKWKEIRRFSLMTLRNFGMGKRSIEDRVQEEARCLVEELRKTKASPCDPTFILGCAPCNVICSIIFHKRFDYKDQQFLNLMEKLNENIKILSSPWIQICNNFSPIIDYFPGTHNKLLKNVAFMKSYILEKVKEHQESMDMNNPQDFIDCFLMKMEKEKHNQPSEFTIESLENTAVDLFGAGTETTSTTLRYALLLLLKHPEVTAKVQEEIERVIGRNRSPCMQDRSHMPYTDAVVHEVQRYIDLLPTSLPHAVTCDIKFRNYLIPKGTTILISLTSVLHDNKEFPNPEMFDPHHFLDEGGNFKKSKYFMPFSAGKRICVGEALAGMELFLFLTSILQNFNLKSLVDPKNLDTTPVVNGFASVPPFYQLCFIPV
Settings: human
Kindly state CYP2C9 Efficacy (in parenthesis) for each of the entries shown.

// known answers, use as guide
>>> print(df.to_string())
                                   compound                                    target                 testvalue
0  CCOP(=S)(OCC)SCSc1ccc(Cl)cc1 [Carbophenothion]  human CYP2C9 (Homo sapiens, UniProt P11712)  1.13 ± 0.13 (-94 ± 12) %
1  COc1c2occc2cc2ccc(=O)oc12 [8-Methoxypsoralen]  human CYP2C9 (Homo sapiens, UniProt P11712)  7.56 ± 2.14 (-95 ± 11) %
2  COc1c2ccoc2cc2oc(=O)ccc12 [5-Methoxypsoralen]  human CYP2C9 (Homo sapiens, UniProt P11712)  2.43 ± 0.16 (-105 ± 2) %
3  CCOP(=S)(OCC)SCn1c(=O)oc2cc(Cl)ccc21 [Phosalone]  human CYP2C9 (Homo sapiens, UniProt P11712)  1.21 ± 0.14 (-101 ± 6) %
4  CCCC1COC(Cn2cncn2)(c2ccc(Cl)cc2Cl)O1 (centres unmarked) [Propiconazole]  human CYP2C9 (Homo sapiens, UniProt P11712)  2.18 ± 0.37 (-104 ± 6) %
5  CCOP(=S)(OCC)Oc1cc(Cl)c(Br)cc1Cl [Bromophos-ethyl]  human CYP2C9 (Homo sapiens, UniProt P11712)  2.36 ± 0.42 (-102 ± 2) %
6  CCOP(=S)(OCC)Oc1ccc([N+](=O)[O-])cc1 [Parathion]  human CYP2C9 (Homo sapiens, UniProt P11712)   1.62 ± 0.19 (-99 ± 2) %

// next item, CYP2C9 Efficacy (in parenthesis) requested
*Q* Output measured CYP2C9 Efficacy (in parenthesis) for this item: CCCOC/C(=N\c1ccc(Cl)cc1C(F)(F)F)n1ccnc1 [Triflumizole]
*A* 3.92 ± 0.98 (-103 ± 3) %

----------
Give AC50 for every item shown.
Target: CYP3A4 (Homo sapiens)
Sequence (P08684 whole entry): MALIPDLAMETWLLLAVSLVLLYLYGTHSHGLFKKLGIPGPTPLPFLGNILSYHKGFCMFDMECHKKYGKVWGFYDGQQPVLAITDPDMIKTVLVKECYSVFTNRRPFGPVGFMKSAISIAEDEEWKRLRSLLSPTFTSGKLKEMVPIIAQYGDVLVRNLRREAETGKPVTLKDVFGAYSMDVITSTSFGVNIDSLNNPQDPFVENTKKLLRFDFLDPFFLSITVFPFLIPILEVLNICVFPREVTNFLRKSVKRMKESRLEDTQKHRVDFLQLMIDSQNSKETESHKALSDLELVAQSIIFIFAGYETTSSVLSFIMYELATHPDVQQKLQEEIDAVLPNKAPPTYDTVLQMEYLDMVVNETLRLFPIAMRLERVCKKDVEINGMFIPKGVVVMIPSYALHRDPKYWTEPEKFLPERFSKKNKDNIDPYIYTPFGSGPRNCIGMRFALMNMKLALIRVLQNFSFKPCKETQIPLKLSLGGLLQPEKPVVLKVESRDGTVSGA
Assay: biochemical
Conditions: CYP3A4 AC50 (half-maximal activity concentration)
One number for each entry, in µM.

>>> print(df.to_string())
                                   compound  testvalue
0  Cc1c(C)c([N+](=O)[O-])c(C(C)(C)C)c([N+](=O)[O-])c1C       12.2
1  C[C@@H]1CC[C@@]2(OC1)O[C@H]1C[C@H]3[C@@H]4CC[C@H]5C[C@@H](O)CC[C@]5(C)[C@H]4CC(=O)[C@]3(C)[C@H]1[C@@H]2C       0.98
2                   Oc1c(Cl)c(Cl)cc(Cl)c1Cl       58.1
3  O=C(O)C(F)(F)C(F)(F)C(F)(F)C(F)(F)C(F)(F)C(F)(F)F       65.8
4                  Clc1nc(Cl)c(Cl)c(Cl)c1Cl       8.61
5  C[C@@H]1O[C@@H](O[C@@H]2C=C3CC[C@@H]4[C@H](CC[C@]5(C)[C@@H](c6ccc(=O)oc6)CC[C@]45O)[C@@]3(C)CC2)[C@H](O)[C@H](O)[C@H]1O       33.4

*Q* Look up and report measured AC50 for this entry: C#C[C@]1(OC(C)=O)CC[C@H]2[C@@H]3CCC4=C[C@@H](OC(C)=O)CC[C@@H]4[C@H]3CC[C@@]21C [Ethynodiol diacetate]
*A* 3.91

----------
Counter-ions that a name gives are not always drawn.
# collection of CYP1A2 IC50 values tested on human CYP1A2 (Homo sapiens)
# Sequence (P05177 whole entry): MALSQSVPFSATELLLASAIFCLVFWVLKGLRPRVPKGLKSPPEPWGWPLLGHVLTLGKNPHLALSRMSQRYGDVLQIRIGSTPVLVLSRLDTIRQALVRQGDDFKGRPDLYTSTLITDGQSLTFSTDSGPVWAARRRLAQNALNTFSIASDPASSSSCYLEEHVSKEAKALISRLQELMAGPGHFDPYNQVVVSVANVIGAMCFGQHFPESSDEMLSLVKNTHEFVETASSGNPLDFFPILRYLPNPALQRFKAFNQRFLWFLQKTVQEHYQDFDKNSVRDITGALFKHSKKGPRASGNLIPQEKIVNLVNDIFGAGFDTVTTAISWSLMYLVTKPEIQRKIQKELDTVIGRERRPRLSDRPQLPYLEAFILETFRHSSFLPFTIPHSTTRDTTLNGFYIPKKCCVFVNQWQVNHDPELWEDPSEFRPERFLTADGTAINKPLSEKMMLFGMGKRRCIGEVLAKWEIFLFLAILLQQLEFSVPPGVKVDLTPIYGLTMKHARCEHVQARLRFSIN

Take a look at these entries with their results.
>>> df
                                   compound  outcomemeasure  testvalue
0  O=c1[nH]c2ccccc2n1CCCN1CCN(C(c2ccccc2)c2ccccc2)CC1 [Oxatomide]     CYP1A2 IC50   Inactive
1                 Cc1ccccc1NC(=N)Nc1ccccc1C     CYP1A2 IC50   Inactive
2  COCC(=O)O[C@]1(CCN(C)CCCc2nc3ccccc3[nH]2)CCc2cc(F)ccc2[C@@H]1C(C)C [Mibefradil dihydrochloride]     CYP1A2 IC50   Inactive
3  O=C(CCCN1CCC2(CC1)C(=O)NCN2c1ccccc1)c1ccc(F)cc1     CYP1A2 IC50   Inactive
4    c1cc[c]([Bi]([c]2ccccc2)[c]2ccccc2)cc1     CYP1A2 IC50   Inactive

Could you tell me CYP1A2 IC50 for each of these compounds? They are listed below.
1. CC(CC1c2ccccc2CCc2ccccc21)CN(C)C (centres unmarked)
2. CC(C)C[C@H]1[C@@H](c2ccccc2)OC(=O)N1CCCN1CCCCCC1.Cl [Ipenoxazone hydrochloride]
3. CN1CCCN(C(c2ccccc2)c2ccc(Cl)cc2)CC1 (centres unmarked)

*A*
1. Inactive
2. Inactive
3. Inactive
